Recorded values, source patent US20150322137A1.

- Experimental System: F protein of human metapneumovirus strain JPS02-76 (type B1), on infectious virus (human metapneumovirus, strain JPS02-76 …, UniProt Q6WB98 19-539)
- Run Description: cell-based or functional assay
Readout Kind: IC90, neutralizing activity (hMPV infection of LLC-MK2 cells; GraphPad Prism 6) (µg/mL)
Answer in µg/mL, number only, no unit symbol.

query: Provide only the value of recorded IC90, neutralizing activity (hMPV infection of LLC-MK2 cells; GraphPad Prism 6) for EV046113 (antibody, human IgG1, kappa, V domains shown) VH: QVQLVESGGGLVRPGGSLRLSCAASGFTFSDYFMTWIRQAPGKGLEWVSYINSIGSVIFYADSVEGRFTVSRDNTMKSLFLQMNSLTAEDTAVYYCARSCRISYGASGGFSCGMDVWGQGTPVTVSS VL: DIQMTQSPSSLSASVGDRVTITCQASQSIRENINWYQQKTGKAPKLLIYDASILETGVPSRFSGSGSGTHFTFTISSLQPEDMATYYCQQYHHLITFGQGTRLDIKR
result: 1.48

query: Provide only the value of recorded IC90, neutralizing activity (hMPV infection of LLC-MK2 cells; GraphPad Prism 6) for EV046130 (antibody, human IgG1, lambda, V domains shown) VH: QVQLVESGGGVAQPGRSLRLSCAASGFTLSNYGMHWVRQAPGKGLEWVAVIWYDGRNKYYADSVKGRFTISRDDFKNTLDLQMNSLRAEDTAVYYCARDQHAGITMIEDWGQGTLVTVSS VL: QSALTQPPSASGSPGQSVTISCTGTSSDVGYFKYVSWYQQHPGKAPKLLIYEVSKRPSGVPDRFSGSRSGNTASLTVSGLQADDEADYYCGSYAGNNNIIFGGGTKLTVLG
result: 0.714

query: Provide only the value of recorded IC90, neutralizing activity (hMPV infection of LLC-MK2 cells; GraphPad Prism 6) for EV046147 (antibody, human IgG1, lambda, V domains shown) VH: QVQLVQSGAEVKKPGASVKVSCKASGYTFSVYGISWVRQAPGHGLEWMGWISAYNGDRGYAQKVQGRITMTTDTSASTAYMELRSLTSDDTAVYYCATTSSGVPGIYWGQGSLVTVSS VL: SYALVQPPSVSVSPGQTARITCFGPALPKKYAYWYQHKSGQAPMLVIYEDTKRPSGIPQRFSGSTSGATATLTIRGAQVEDEADYYCYSTDSSGHERVFGGGTKLTVLG
result: 1.18

query: Provide only the value of recorded IC90, neutralizing activity (hMPV infection of LLC-MK2 cells; GraphPad Prism 6) for EV046141 (antibody, human IgG1, lambda, V domains shown) VH: QVQLVQSGAEVKKPGASVKVSCKASGYTFADYYIHWLRQAPGQGLEWLGRINPSNSRTTYPQKFQGRVTVTRDTSTSTVYMELSSLRSADTAVYYCARDGLRMGYYYMDVWGKGTTVTVSS VL: QSVLTQPPSVSGAPGQRVTISCTGSSSNIGAGYDVHWYQQIPGTAPKLLIFGNYNRPSGVPDRFSASKSGTSASLAITGLQAEDEAHYYCQSYDTTLDGAVFGGGTKLTVLG
result: 2.18

query: Provide only the value of recorded IC90, neutralizing activity (hMPV infection of LLC-MK2 cells; GraphPad Prism 6) for EV046120 (antibody, human IgG1, lambda, V domains shown) VH: EVQLVESGGGLVKPGGSLRLSCAASGFTFSSYSMNWVRQAPGKGLEWVSSISSSSSYIYYADSLKGRFTVSRDNAKKSLYLQMNSLRAEDTAVYYCARVDYGTNSEVGRFDPWGQGTLVTVSS VL: QSVLTQPPSVSGTPGQRVTISCTGSSSNIGAGYAVHWYQQLPGTAPKLLIYDSINRPSGVPDRFSGSKSGTSASLAITGLQTEDEADYYCHSYDRSLSGSVFGGGTKLTVLG
result: 1.65

query: Provide only the value of recorded IC90, neutralizing activity (hMPV infection of LLC-MK2 cells; GraphPad Prism 6) for EV046143 (antibody, human IgG1, kappa, V domains shown) VH: QVQLVQSGAEVQKPGSSVKVSCKTSGDTFNNYALSWVRQAPGQGPEWMGRIIPLVEMANYAQKFQGRVTITADKSTTTIYMELSSLRSEDTAMYYCARDGYQGGFPYFFDSWGQGTLVTVSS VL: EVVLTQSPGTLSLSPGERATLSCRASQSVSNYLAWYQQKPGQAPRLLISAASSRATGIPDRFGGSGSGADFTLTISRLEPEDFAVYYCQQYGFSPGTFGQGTKVEIRR
result: 0.735

query: Provide only the value of recorded IC90, neutralizing activity (hMPV infection of LLC-MK2 cells; GraphPad Prism 6) for EV046135 (antibody, human IgG1, lambda, V domains shown) VH: QEQLVESGGDLVKPGGSLRITCAASGFTLSGYALVWVRQAPGRGLEWIADITASSTYINYAASVKGRFTISRDNAQSSLFLQMSSLRADDTGVYFCARLPHLPGFFDLWGRGTLVSVSS VL: QSVLTQPPSVSGAPGQRVTISCTGNSSNIGAGYDVNWYQHLPGTAPKLLISVNTNRPSGVPDRFSGSMSGTSASLAITGLQAEDEADYYCQSYDRRLSGYVFGTGTKVTVLG
result: 1.44

query: Provide only the value of recorded IC90, neutralizing activity (hMPV infection of LLC-MK2 cells; GraphPad Prism 6) for EV046116 (antibody, human IgG1, kappa, V domains shown) VH: QVQLQESGPGLVKPSETLSLTCTVSGGSISRDYWSFIRQPAGKGLEWIGRIYHNGDTNYNPSLKSRVTMSQDTSKNQFFLRLRHVTAADTAVYYCAREGSAGTFGQADWGQGTLVIVYS VL: EIVMTQSPATLSVSPGERATLSCRASQSISNNLAWYQQKPGQAPRLLIYGASTRATGIPARFSGGGSGTEFTLTISSLQSEDFAVYYCQQYENWLLYTFGQGTKLEIKR
result: 3

query: Provide only the value of recorded IC90, neutralizing activity (hMPV infection of LLC-MK2 cells; GraphPad Prism 6) for EV046150 (antibody, human IgG1, kappa, V domains shown) VH: RVQLVQSGAEVKKPGSSVRVSCKASGGTFSNYSISWVRQVPGQGLEWMGRIIPILPLSSYPQQFQGRVAITADKSSTTAYMELSSLRIEDTAIYYCARDALRPEGGYYYYYFDVWGTGTTVTVSS VL: EIELTQSPGTLSLSPGERATLSCRANQIIGDTSLAWYQQKPGQAPRLLIFGASSRATGIPDRFSGSGFGSDFTLTITSLEPEDFAVYYCQQYGSSPTFGQGTKVEIKR
result: 0.663

query: Provide only the value of recorded IC90, neutralizing activity (hMPV infection of LLC-MK2 cells; GraphPad Prism 6) for EV046142 (antibody, human IgG1, lambda, V domains shown) VH: QVQLVQSGAEVKKPGSSVRVSCKASGGTFSTYGINWVRQARGQGLEWMGTVIPTFEKTYYAQGFQGRVTIAADGSKNTVYMELRRLTSEDSAIYFCTRFFTPYCSGGSCYLDLWGPGTLVTVSS VL: QSVLTQPPSVSGAPGQSVTISCAGSSSNIGAGYDVHWYQHLPGTAPRLLIYSNTNRPSGVPDRFSGSKSGASASLAITGLQAEDEADYYCQSYDSGVVFGGGTKLTVLR
result: 1.57

query: Provide only the value of recorded IC90, neutralizing activity (hMPV infection of LLC-MK2 cells; GraphPad Prism 6) for EV046136 (antibody, human IgG1, kappa, V domains shown) VH: QVQLVQSGAEMKKPGASVKVSCKASGYTFTDYFIHWVRQAPGQGLEWMGWVNPNSGATNYAQKFQGRVTMTGDTSLSAAYVDLSRLSSDDSAVYYCARDRGLGISSTRNDAFDIWGQGTTVTVSS VL: DIQLTQSPSSLSASVGDRVTITCQPSQGIRNFLNWYQQKPGKAPNLLIYDASNLETGVASRFSGSGSGTHFTLTISSLQPEDIATYFCQQYHSLPLTFGGGTKVEIKR
result: 0.895
